# assay protocol: in vitro
recorded endpoint: half-life (min)
Numbers only; they are read as min.

Data point: COCCCCCCCCCCCC(=O)OC[C@H](COP(=O)(O)OCCN)OC(=O)CCCCCCCCCCCOC ; half-life = 562

----------
# assay protocol: Drug cytotoxicity MTT assay (TC50), uninfected MT4 cells
# Assay type: cell-based
# condition details: human, uninfected MT4 cells; MT4 cells, absence of HIV
recorded endpoint: CC50 at 5 days (µM)
Numbers only; they are read as µM.

Data point: COCCCCCCCCCCCC(=O)O [12MO, 12-methoxydodecanoic acid, reference compound] ; CC50 at 5 days = 140

----------
# assay protocol: Drug cytotoxicity MTT assay (TC50), PBMC
# Format: cell-based
# condition details: human, uninfected; PBMC cells, absence of HIV
# Method: Three assays for anti-HIV activity were used and the IC50 was calculated from these assays; (i) syncytial cell assays, (ii) reverse transcriptase assays, and (iii) direct cytotoxicity assays. […] This control assured that only the antiviral effect of the compound is measured. […] The therapeutic index was calculated from TC50/IC50. The ability of anti-HIV phospholipids to inhibit direct cytopathic effect caused by HIV infection was also measured. […]
recorded endpoint: CC50 at 5 days (µM)
Numbers only; they are read as µM.

Data point: COCCCCCCCCCCCC(=O)O [12MO, 12-methoxydodecanoic acid, reference compound] ; CC50 at 5 days = 340
